Assay target: human Edg-1 receptor (Homo sapiens)
Construct: expressed in transfected cells; membrane preparation
Sequence (P21453 whole entry): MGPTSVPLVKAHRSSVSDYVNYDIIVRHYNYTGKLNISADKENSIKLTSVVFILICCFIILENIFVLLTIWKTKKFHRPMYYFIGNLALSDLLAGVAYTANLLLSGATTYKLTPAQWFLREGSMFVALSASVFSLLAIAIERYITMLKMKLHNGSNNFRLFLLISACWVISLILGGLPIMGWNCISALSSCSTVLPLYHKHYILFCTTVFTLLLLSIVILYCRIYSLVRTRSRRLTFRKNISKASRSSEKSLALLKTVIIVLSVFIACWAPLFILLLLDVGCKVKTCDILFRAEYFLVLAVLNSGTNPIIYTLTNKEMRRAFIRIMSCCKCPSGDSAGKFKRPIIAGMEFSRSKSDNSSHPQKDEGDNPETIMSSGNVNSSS
Assay overview: GTP-γ-S assay using human Edg-1 receptors (scintillation proximity assay, membrane preparation from CHO Flp-In cell line)
Assay type: biochemical
Assay context: example compound at 10 μM; relative to 10 μM S1P; GTP-γ-S SPA, human Edg-1 membranes
Value type: % Activation (Edg-1 receptor activation in percent of the activation by 10 μM S1P) (%)

Example entries and their recorded answers appear below.
CCOc1nc(Cc2ccc(Cl)cc2)nc2oc(-c3cccnc3)nc12 : 110
CCCOc1nc(Cc2ccc(Cl)cc2)nc2oc(-c3cncnc3)nc12 : 75

[P] CCCOc1nc(Cc2ccc(Cl)cc2)nc2oc(-c3ccc(N4CCOCC4)nc3)nc12
[Q] CCCOc1nc(Cc2ccc(Cl)cc2)nc2oc(-c3cnc(N4CCN(C)CC4)nc3)nc12
stdin: Returns: the label, P or Q , whose recorded % Activation (Edg-1 receptor activation in percent of the activation by 10 μM S1P) is the lower number. Selection: enter the item's label.
stdout: P
(P: 41%, Q: 77%)
